These entries and their values trace back to patent US20250250357A1.

# experimental system: T1, human MSLN-R2-his protein (human, UniProt Q13421 391-486)
# T1 construct: Region 2 of human MSLN, His-tagged; also called human MSLN-R2 protein; hMSLN-R2-his; not shown: His tag
# T1 sequence (Q13421 other isoform, or with tags, fused parts or gaps): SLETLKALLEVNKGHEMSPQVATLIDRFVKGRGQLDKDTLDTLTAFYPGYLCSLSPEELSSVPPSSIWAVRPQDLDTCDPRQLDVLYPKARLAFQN
# method summary: ELISA, coated MSLN-R2;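 also: chimeric antibodies bound to blocked coated plates for 2 h at 37 °C, TMB colour development stopped with HCl, with a negative control antibody for comparison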
Some binders, each annotated with its measured OD450 at 1 nM.

binder	readout name	assay value
S009-F1.25.10 (antibody, human IgG1, kappa, V domains shown, Human-murine chimeric antibody, human IgG1/kappa constant regions) VH: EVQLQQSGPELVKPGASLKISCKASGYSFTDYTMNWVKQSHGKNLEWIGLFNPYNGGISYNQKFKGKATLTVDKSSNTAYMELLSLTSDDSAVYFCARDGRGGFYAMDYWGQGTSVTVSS VL: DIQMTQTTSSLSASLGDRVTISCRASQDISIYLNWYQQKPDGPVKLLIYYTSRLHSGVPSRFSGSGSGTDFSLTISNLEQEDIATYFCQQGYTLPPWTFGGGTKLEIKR	OD450 at 1 nM	0.04 OD450
S009-F1.56.1 (antibody, human IgG1, kappa, V domains shown, Human-murine chimeric antibody, human IgG1/kappa constant regions) VH: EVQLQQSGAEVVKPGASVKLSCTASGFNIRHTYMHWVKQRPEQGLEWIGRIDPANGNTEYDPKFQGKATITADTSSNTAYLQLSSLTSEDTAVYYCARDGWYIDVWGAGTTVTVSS VL: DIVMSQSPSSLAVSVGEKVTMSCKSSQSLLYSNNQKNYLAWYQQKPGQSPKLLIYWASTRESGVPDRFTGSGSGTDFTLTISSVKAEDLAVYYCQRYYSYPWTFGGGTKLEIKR	OD450 at 1 nM	2.04 OD450
S009-F1.35.24 (antibody, human IgG1, kappa, V domains shown, Human-murine chimeric antibody, human IgG1/kappa constant regions) VH: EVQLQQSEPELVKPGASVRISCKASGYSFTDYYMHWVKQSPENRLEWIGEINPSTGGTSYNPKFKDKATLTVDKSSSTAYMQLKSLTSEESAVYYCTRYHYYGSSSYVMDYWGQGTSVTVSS VL: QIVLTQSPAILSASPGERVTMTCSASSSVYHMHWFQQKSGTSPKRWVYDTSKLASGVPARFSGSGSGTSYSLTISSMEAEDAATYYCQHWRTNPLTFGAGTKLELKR	OD450 at 1 nM	0.05 OD450
S009-F1.2.12 (antibody, human IgG1, kappa, V domains shown) VH: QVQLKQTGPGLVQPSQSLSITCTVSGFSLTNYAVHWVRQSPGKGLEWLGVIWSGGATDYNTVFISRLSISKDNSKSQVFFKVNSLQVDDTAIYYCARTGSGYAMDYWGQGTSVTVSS VL: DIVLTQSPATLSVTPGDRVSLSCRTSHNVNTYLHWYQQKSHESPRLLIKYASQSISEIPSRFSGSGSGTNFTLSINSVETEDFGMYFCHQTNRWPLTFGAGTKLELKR	OD450 at 1 nM	0.1 OD450
S009-F1.59.1 (antibody, human IgG1, kappa, V domains shown, Human-murine chimeric antibody, human IgG1/kappa constant regions) VH: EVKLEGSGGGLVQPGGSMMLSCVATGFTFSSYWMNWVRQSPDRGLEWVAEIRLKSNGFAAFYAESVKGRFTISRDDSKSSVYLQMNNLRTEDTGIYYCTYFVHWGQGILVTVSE VL: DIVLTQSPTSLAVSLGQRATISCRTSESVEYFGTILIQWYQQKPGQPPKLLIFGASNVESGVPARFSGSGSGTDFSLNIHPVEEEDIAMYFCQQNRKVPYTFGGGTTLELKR	OD450 at 1 nM	0.04 OD450
S009-F1.57.1 (antibody, human IgG1, kappa, V domains shown, Human-murine chimeric antibody, human IgG1/kappa constant regions) VH: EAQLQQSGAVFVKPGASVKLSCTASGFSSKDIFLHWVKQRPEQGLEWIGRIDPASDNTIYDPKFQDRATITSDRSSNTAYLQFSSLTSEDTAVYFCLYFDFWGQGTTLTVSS VL: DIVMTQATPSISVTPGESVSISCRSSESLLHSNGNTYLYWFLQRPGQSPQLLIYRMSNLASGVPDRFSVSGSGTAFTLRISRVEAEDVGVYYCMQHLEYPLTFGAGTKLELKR	OD450 at 1 nM	0.04 OD450

# context switch: different binder, same OD450 at 1 nM
Req: Indicate the recorded OD450 at 1 nM value for this binder: S009-F1.62.9 (antibody, human IgG1, kappa, V domains shown, Human-murine chimeric antibody, human IgG1/kappa constant regions) VH: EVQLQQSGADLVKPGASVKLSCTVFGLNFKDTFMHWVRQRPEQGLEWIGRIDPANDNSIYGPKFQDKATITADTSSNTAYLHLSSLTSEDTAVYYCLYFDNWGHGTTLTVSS VL: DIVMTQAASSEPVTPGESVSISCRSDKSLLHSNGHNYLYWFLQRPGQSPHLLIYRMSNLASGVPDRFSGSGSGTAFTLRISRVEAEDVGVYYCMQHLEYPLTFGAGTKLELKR
Resp: 0.04 OD450
